Target: T1, IL23R_huFC (human, UniProt Q5VWK5 24-353)
T1 sequence (looked up): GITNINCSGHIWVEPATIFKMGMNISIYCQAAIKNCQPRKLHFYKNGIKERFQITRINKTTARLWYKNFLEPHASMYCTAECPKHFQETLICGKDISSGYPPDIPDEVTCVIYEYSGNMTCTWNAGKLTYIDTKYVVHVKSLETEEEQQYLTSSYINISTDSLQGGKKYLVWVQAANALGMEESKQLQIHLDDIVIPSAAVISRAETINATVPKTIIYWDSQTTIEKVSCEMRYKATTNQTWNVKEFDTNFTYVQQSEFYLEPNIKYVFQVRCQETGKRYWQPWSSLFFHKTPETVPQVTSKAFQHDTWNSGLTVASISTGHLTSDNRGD
Test: IL23-IL23R competitive binding ELISA
pIC50: −log10 of the molar value. Bridges are numbered along the chain shown (N, C = ends). [ ]: non-standard residue; d: D form. Pen = CC(C)(S)[C@H](N)C(=O)O
VALUE KIND: pIC50

These solved cases illustrate the format of a correct answer.
## Task Please list pIC50 recorded for the binder EXQTWQXFXKKNG (N-terminal pyroglutamic acid; Pen-Pen disulfide; Phe(4-OMe); 2-Nal; α-MeLys; Lys(Ac); NH2) [pyroglutamic acid-[Pen]-QTWQ[Pen]-[Phe(4-OMe)]-[2-Nal]-[α-MeLys]-[Lys(Ac)]-NG-NH2]
## Result 7.00 to 7.60

## Task Please list pIC50 recorded for the binder XQTWQXYWLENG (Ac; Pen-Pen disulfide; α-MeLeu; NH2) [Ac-[Pen]-QTWQ-[Pen]-Y-[α-MeLeu]-ENG-NH2]
## Result 7.00 to 7.60

## Task Please list pIC50 recorded for the binder Ac-[Pen]QTWQ[Pen]YW[dN]ENG-NH2 (disulfide 1-6; SMILES CC(=O)N[C@@H]1C(=O)N[C@@H](CCC(N)=O)C(=O)N[C@@H]([C@@H](C)O)C(=O)N[C@@H](Cc2c[nH]c3ccccc23)C(=O)N[C@@H](CCC(N)=O)C(=O)N[C@H](C(=O)N[C@@H](Cc2ccc(O)cc2)C(=O)N[C@@H](Cc2c[nH]c3ccccc23)C(=O)N[C@H](CC(N)=O)C(=O)N[C@@H](CCC(=O)O)C(=O)N[C@@H](CC(N)=O)C(=O)NCC(N)=O)C(C)(C)SSC1(C)C) [Ac-[Pen]-QTWQ-[Pen]-YW-[(D)Asn]-ENG-NH2]
## Result 5.00 to 6.00

Here's the next entry for you.
## Task Please list pIC50 recorded for the binder XQTWQXYWLENG (Ac; Pen-Pen disulfide; hLeu; NH2) [Ac-[[Pen]-QTWQ-[Pen]-YW-[hLeu]-ENG-NH2]
## Result 6.00 to 7.00

The reported numbers originate from patent US20190300590A1.
